Catalogue of compounds with associated TGI
test system: M19-MEL melanoma; assay: NCI tumour cell line growth inhibition, 48 h

The following compounds have reported results that may help.
[
  {
    "COMPOUND": "c1ccc2c(c1)nc(NC1CCCC1)c1[nH]c(C3CCCC3)nc12",
    "OBS_VALUE": "27.7 µM"
  },
  {
    "COMPOUND": "O=C1Nc2cc([N+](=O)[O-])ccc2NC1/C(=N\\Nc1ccccc1)C(O)c1cccc([N+](=O)[O-])c1 (stereo not drawn)",
    "OBS_VALUE": "> 100 µM"
  },
  {
    "COMPOUND": "COc1ccccc1NC(=O)C1=C(C)NC(C)=C(C(=O)Nc2ccccc2OC)C1c1ccc(C)cc1",
    "OBS_VALUE": "> 100 µM"
  },
  {
    "COMPOUND": "C/C(=N\\NC(N)=S)C(CN(CC(C)C)CC(C)C)C(=O)Nc1ccc(C)cc1C (stereo not drawn)",
    "OBS_VALUE": "> 100 µM"
  },
  {
    "COMPOUND": "CCOC(=O)C1SC(=Nc2ccc(Cl)c(Cl)c2)N=C1C (stereo not drawn)",
    "OBS_VALUE": "> 100 µM"
  }
]

Req: What value of TGI has been recorded for this entry: CC(=O)O[C@H]1CCC(C)=CCC[C@@]2(C)C(CC[C@@H]2[C@@H](C)/C=C/C(C)C)c2ccc(cc2C(=O)O)C1 (stereo partly drawn)
Resp: 14 µM

Req: TGI for CC(C)(C)C(=O)ON1N=NC2C3CC(OCc4ccccc4)(OCc4ccccc4)C(O3)C21 (stereo not drawn) ?
Resp: 30 µM

Req: Quick check: TGI of CC(=O)OC1(C)C(=O)OC1(C)C(C)=O (stereo not drawn) ?
Resp: > 100 µM
